# test-target: Substance-P receptor (Cavia porcellus, UniProt P30547)
# Sequence (P30547 whole entry): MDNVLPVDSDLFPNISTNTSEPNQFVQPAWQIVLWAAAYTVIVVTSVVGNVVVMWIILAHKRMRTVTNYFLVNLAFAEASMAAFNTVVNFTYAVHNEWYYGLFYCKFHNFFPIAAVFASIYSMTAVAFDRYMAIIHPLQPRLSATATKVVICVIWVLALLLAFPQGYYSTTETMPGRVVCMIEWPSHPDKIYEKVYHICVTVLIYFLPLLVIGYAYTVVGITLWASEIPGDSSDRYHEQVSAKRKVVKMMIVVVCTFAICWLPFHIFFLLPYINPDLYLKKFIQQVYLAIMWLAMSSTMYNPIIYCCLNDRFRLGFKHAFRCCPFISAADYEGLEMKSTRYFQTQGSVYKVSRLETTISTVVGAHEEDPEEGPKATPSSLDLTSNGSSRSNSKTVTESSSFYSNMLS
# measurement-description: The compound was evaluated in vitro for the antagonistic activity against substance P receptor in guinea pig myenteric plexus longitudinal muscle strips.
# Format: functional
# setup-conditions: read-out: pA2 (converted)
quantity-kind: Kb (nM)
Field: numeric (nM). Do not append units.

Task: For "CC(C)C[C@H](NC(=O)[C@@H](Cc1c[nH]c2ccccc12)NC(=O)[C@H](Cc1ccccc1)c1c[nH]c([C@@H](Cc2c[nH]c3ccccc23)NC(=O)[C@@H]2CCCN2)n1)C(=O)N[C@@H](Cc1ccccc1)C(N)=O" , write its Kb.
Result: 200

Task: For "CC(C)C[C@H](NC(=O)[C@@H](Cc1c[nH]c2ccccc12)c1cnc(C(=O)[C@H](Cc2ccccc2)NC(=O)[C@@H](Cc2c[nH]c3ccccc23)NC(=O)[C@@H]2CCCN2)s1)C(=O)N[C@@H](Cc1ccccc1)C(N)=O" , write its Kb.
Result: 1260

Task: For "CC(C)C[C@H](NC(=O)[C@@H](Cc1c[nH]c2ccccc12)NC(=O)[C@H](Cc1ccccc1)c1cnc([C@@H](Cc2c[nH]c3ccccc23)NC(=O)[C@@H]2CCCN2)o1)C(=O)N[C@@H](Cc1ccccc1)C(N)=O" , write its Kb.
Result: 501

Task: For "CC(C)C[C@H](NC(=O)[C@@H](Cc1c[nH]c2ccccc12)NC(=O)[C@H](Cc1ccccc1)c1cnc([C@@H](Cc2c[nH]c3ccccc23)NC(=O)[C@@H]2CCCN2)s1)C(=O)N[C@@H](Cc1ccccc1)C(N)=O" , write its Kb.
Result: 39.8

meta.source: ChEMBL document CHEMBL1126480
